These data points were gathered from patent US20130195872A1.

Would you kindly list IC50, IL-6 secretion by MEF cells, cytokine at 17.5 ng/ml for each of these binders?
Biological target: T1, human IL-17A/IL-17F heterodimer (human, UniProt Q16552 24-155; Q96PD4 31-163, limits assumed)
T1 sequence (looked up) 1: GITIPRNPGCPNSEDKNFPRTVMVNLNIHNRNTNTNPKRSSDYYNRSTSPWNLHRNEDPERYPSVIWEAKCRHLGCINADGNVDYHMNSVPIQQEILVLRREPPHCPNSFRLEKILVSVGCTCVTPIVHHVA
T1 sequence (looked up) 2: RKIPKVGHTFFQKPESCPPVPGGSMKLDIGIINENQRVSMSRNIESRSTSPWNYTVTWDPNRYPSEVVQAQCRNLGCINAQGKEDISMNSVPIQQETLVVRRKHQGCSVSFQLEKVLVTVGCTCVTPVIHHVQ
Experiment: cell-based or functional assay
Reply numerically in nM, unit not repeated.

// IC50, IL-6 secretion by MEF cells, cytokine at 17.5 ng/ml value for 39F12A antibody (antibody, V domains shown) VH: QVQLVQSGAEVKKPGSSVKVSCKASGGTLSSYAFSWVRQAPGQGLEWMGGIIPFFGTTNYAQKFQGRVIITADESTNTAYMELSGLRSEDTAVYYCARDRDYYGLGSPFYYYGMDVWGQGTTVTVSS VL: EIVLTQSPDFQSVTPKEKVTITCRASQSIGSSLHWYQQKPDQSPKLLIKYASQSFSGVPSRFSGSGSGTDFTLTINSLEAEDAATYYCHQSSSLPWTFGQGTKVEIK : 4.4

// IC50, IL-6 secretion by MEF cells, cytokine at 17.5 ng/ml value for 1E4 antibody (antibody, IgG4, V domains shown) VH: QVQLVQSGAEVKKPGASVKVSCKASVYTFTTYGISWVRQAPGQGLEWMGWISVYNGNTNYGQNFQGRVSMTTDTSTSTAYMELRSLRSDDTAVYYCASFHGGHSGYHYGLDVWGQGTTVTVSS VL: EIVLTQSPATLSLSPGERATLSCRASQSVSSYLAWYQQKPGQAPRLLIYDASNRATGIPARFSGSGSGTDFTLTISSLEPEDFAVYYCQQRSNWPPYTFGQGTKLEIK : 16

// IC50, IL-6 secretion by MEF cells, cytokine at 17.5 ng/ml value for 4H11 antibody (antibody, IgG1, V domains shown, also called Mab09; 4H11 IgG1) VH: EVQLVESGGGLVQPGGSLKLSCAASGFTFSGSSMHWVRQASGKGLDWVGRIRSKANSYATAYAASVIGRFTISRDDSKNTAYLQMNSLKTEDTAVYYCTTSVATTLTDYYGMDVWGQGTTVTVSS VL: EIVLTQSPATLSLSPGERATLSCRASQSVSSYLAWYQQKPGQAPRLLIYDASNRATGIPARFSGSGSGTDFTLTISSLEPEDFAVYYCQQRSNWPPFTFGPGTKVDIK : 810

// IC50, IL-6 secretion by MEF cells, cytokine at 17.5 ng/ml value for 29D8 antibody (antibody, IgG1, V domains shown) VH: QVQLVQSGAEVKKPGASVKVSCKAFAYTFSTYGISWVRQAPGQGLEWMGWISAYNSNTNYAQKVQGRITMTTDTSTRTAYMELRGLRSDDTAVYFCATFFGGHSGYHYGLDVWGQGTTVTVSS VL: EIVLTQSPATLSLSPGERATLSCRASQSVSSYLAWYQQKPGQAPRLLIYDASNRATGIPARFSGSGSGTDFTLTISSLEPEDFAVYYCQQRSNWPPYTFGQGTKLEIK : 1.1

// IC50, IL-6 secretion by MEF cells, cytokine at 17.5 ng/ml value for 12B12 antibody (antibody, IgG4, V domains shown) VH: QVQLVQSGAEVKKPGSSVKVSCKASGGTLSSYAFSWVRQAPGQGLEWMGGIIPFFGTVNYAQKFQGRVTITADESTNTAYMELSSLRSEDTAVYYCARDRDYYGLGSPLHYYGLDVWGQGTTVTVSS VL: EIVLTQSPDFQSVTPKEKVTITCRASQSIGSSLHWYQQKPDQSPKLLIKYASQSFSGVPSRFSGSGSGTDFTLTINSLEAEDAAAYYCHQSSSLPWTFGQGTKVEIK : 13
